FYI, the data here is from paper PMC6789487.

- Test Target: α-glucosidase (from Saccharomyces cerevisiae) (Saccharomyces cerevisiae)
- Sequence (P53341 whole entry): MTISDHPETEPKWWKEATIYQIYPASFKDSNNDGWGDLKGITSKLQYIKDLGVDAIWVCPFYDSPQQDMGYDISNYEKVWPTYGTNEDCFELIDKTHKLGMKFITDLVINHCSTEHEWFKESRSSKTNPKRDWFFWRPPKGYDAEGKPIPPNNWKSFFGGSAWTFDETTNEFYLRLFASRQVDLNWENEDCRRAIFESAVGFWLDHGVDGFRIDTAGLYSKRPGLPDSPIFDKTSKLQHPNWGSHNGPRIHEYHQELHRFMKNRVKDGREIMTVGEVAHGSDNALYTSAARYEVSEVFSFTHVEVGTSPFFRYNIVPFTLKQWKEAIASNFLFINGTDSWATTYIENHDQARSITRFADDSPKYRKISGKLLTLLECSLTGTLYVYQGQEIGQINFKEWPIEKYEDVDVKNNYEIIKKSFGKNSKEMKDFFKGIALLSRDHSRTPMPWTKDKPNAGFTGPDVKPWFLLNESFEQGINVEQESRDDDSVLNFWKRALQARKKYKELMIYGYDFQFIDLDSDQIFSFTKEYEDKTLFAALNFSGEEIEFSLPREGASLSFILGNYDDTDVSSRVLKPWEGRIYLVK
- Test Summary: Yeast α-glucosidase inhibition, p-nitrophenyl α-D-glucopyranoside substrate, 96-well plate
- Format: biochemical
- Condition Description: read-out: Inhibition (µM) α-Glucosidase (IC50), NI: no inhibition
- Method: Biological assays: Yeast α-glucosidase (EC 3.2.1.20) and almond β-glucosidase (EC 3.2.1.21) activity was assessed using a 96-well plate assay. […]
Measured IC50 accompanies every entry in the list below.
Measurement Name: IC50

Compound | Test Target | Measurement Name | Result
OCCN1C[C@@H](O)[C@@H](O)[C@H](O)[C@@H]1CO [28a] | α-glucosidase (from Saccharomyces cerevisiae) (Saccharomyces cerevisiae) | IC50 | > 2000 µM
CCCCN1C[C@H](O)[C@@H](O)[C@H](O)[C@H]1CO [40a, N-Butyl-1,5-dideoxy-1,5-imino-D-glucitol, reference compound] | α-glucosidase (from Saccharomyces cerevisiae) (Saccharomyces cerevisiae) | IC50 | > 2000 µM
CCCCN1C[C@@H](O)[C@@H](O)[C@H](O)[C@@H]1CO [27a, N-Butyl-1,5-dideoxy-1,5-imino-L-gulitol] | α-glucosidase (from Saccharomyces cerevisiae) (Saccharomyces cerevisiae) | IC50 | > 2000 µM
